Taken from paper PMC5517562.

The entries below come with measured melting point values attached.
Measured attribute: melting point

> print(dat)
                                   compound  measured.attribute  readout.value
1  CCOC(=O)C1=C(C)N(c2nc(Nc3ccc([N+](=O)[O-])cc3)nc(Nc3ccc([N+](=O)[O-])cc3)n2)C(=S)NC1c1ccc(C)cc1 (stereo not shown)       melting point  183 to 185 °C
2  CCOC(=O)C1=C(C)N(c2nc(Nc3ccccc3Cl)nc(Nc3ccccc3Cl)n2)C(=S)NC1c1ccc(OC)cc1 (stereo not shown)       melting point    91 to 93 °C
3  CCOC(=O)C1=C(C)N(c2nc(Nc3ccc(C)cc3)nc(Nc3ccc(C)cc3)n2)C(=S)NC1c1ccc(O)cc1 (stereo not shown)       melting point  131 to 133 °C
4  CCOC(=O)C1=C(C)N(c2nc(Nc3ccc(C)cc3)nc(Nc3ccc(C)cc3)n2)C(=S)NC1c1ccccc1C (stereo not shown)       melting point  205 to 207 °C
5  CCOC(=O)C1=C(C)N(c2nc(Nc3ccc(Cl)cc3)nc(Nc3ccc(Cl)cc3)n2)C(=S)NC1c1ccccc1Cl (stereo not shown)       melting point  112 to 114 °C
6  CCOC(=O)C1=C(C)N(c2nc(Nc3ccc([N+](=O)[O-])cc3)nc(Nc3ccc([N+](=O)[O-])cc3)n2)C(=S)NC1c1ccc(Cl)cc1 (stereo not shown)       melting point  146 to 147 °C
7  CCOC(=O)C1=C(C)N(c2nc(Nc3cccc(Br)c3)nc(Nc3cccc(Br)c3)n2)C(=S)NC1c1ccccc1O (stereo not shown)       melting point  245 to 247 °C

---

test system: MCF-7 (breast cancer); experiment: MTT in vitro cytotoxicity assay, MCF-7; format: cell-based, human; conditions: Homo sapiens, MCF7
# if measured IC50 < 80 µM: y  # else: n

> print(dat)
                                    molecule  category.label
 1  CCOC(=O)C1=C(C)N(c2nc(Nc3cccc(F)c3)nc(Nc3cccc(F)c3)n2)C(=S)NC1c1ccccc1OC (centres unmarked) [7g]               y
 2  CCOC(=O)C1=C(C)N(c2nc(Nc3cccc(Br)c3)nc(Nc3cccc(Br)c3)n2)C(=S)NC1c1ccccc1O (centres unmarked) [7e]               y
 3  CCOC(=O)C1=C(C)N(c2nc(Nc3ccc(C)cc3)nc(Nc3ccc(C)cc3)n2)C(=S)NC1c1ccccc1C (centres unmarked) [7n]               n
 4  CCOC(=O)C1=C(C)N(c2nc(Nc3ccc([N+](=O)[O-])cc3)nc(Nc3ccc([N+](=O)[O-])cc3)n2)C(=S)NC1c1ccc(C)cc1 (centres unmarked) [7b]               y
 5  CCOC(=O)C1=C(C)N(c2nc(Nc3cccc(Br)c3)nc(Nc3cccc(Br)c3)n2)C(=S)NC1c1ccc([N+](=O)[O-])cc1 (centres unmarked) [7k]               y
 6  CCOC(=O)C1=C(C)N(c2nc(Nc3cccc(Cl)c3)nc(Nc3cccc(Cl)c3)n2)C(=S)NC1c1ccc(O)cc1 (centres unmarked) [7d]               y
 7  CCOC(=O)C1=C(C)N(c2nc(Nc3ccc([N+](=O)[O-])cc3)nc(Nc3ccc([N+](=O)[O-])cc3)n2)C(=S)NC1c1ccc(Cl)cc1 (centres unmarked) [7h]               y
 8  CCOC(=O)C1=C(C)N(c2nc(Nc3ccccc3[N+](=O)[O-])nc(Nc3ccccc3[N+](=O)[O-])n2)C(=S)NC1c1ccc(C)cc1 (centres unmarked) [7c]               y
 9  CCOC(=O)C1=C(C)N(c2nc(Nc3ccccc3)nc(Nc3ccccc3)n2)C(=S)NC1c1ccccc1 (centres unmarked) [7a]               n
10  CCOC(=O)C1=C(C)N(c2nc(Nc3ccc(C)cc3)nc(Nc3ccc(C)cc3)n2)C(=S)NC1c1ccc(O)cc1 (centres unmarked) [7o]               n
11  CCOC(=O)C1=C(C)N(c2nc(Nc3cccc(Cl)c3)nc(Nc3cccc(Cl)c3)n2)C(=S)NC1c1ccc(F)cc1 (centres unmarked) [7m]               y
